Tested on: human duplex sequence FdxT
Assay: FRET melting assay, duplex control FdxT
Type: binding
Settings: compound 2 μM, oligonucleotide 0.2 μM, K+ conditions
Description: These were performed with dual-labeled oligonucleotides mimicking the Plasmodium telomeric sequences FPf1T [FAM-5′(GGGTTTA)3-GGG3′-TAMRA] and FPf8T [FAM-5′(GGGTTCA)3GGG3′-TAMRA], the Trypanosoma 9 and 11 chromosomic sequence FTrypBT (also named FEBR1T) [FAM-5′[…]3′-TAMRA], the human telomeric sequence F21T [FAM-(GGGTTA)3-GGG3′-TAMRA] and the human duplex sequence FdxT [FAM5′-[…]-hexaethyleneglycol-[…]3′-TAMRA] [27, 31, 47]. […]
Consider the following molecules and their measured ΔTm FdxT readings.

MOLECULE	ΔTm FdxT / °C
CN1CCN(CCNCc2cc(-c3ccccc3)c3ccc4c(-c5ccccc5)cc(CNCCN5CCN(C)CC5)nc4c3n2)CC1 [Compound 1e]	−1.6
c1ccc(-c2cc(CNCCN3CCOCC3)nc3c2ccc2c(-c4ccccc4)cc(CNCCN4CCOCC4)nc23)cc1 [Compound 1h]	−0.9
CN(C)CCCCNCc1cc(-c2ccccc2)c2ccc3c(-c4ccccc4)cc(CNCCCCN(C)C)nc3c2n1 [Compound 1c]	−0.5
c1ccc(-c2cc(CNCCCc3ccncc3)nc3c2ccc2c(-c4ccccc4)cc(CNCCCc4ccncc4)nc23)cc1 [Compound 1p]	−1.1
c1ccc(-c2cc(CNCCCN3CCOCC3)nc3c2ccc2c(-c4ccccc4)cc(CNCCCN4CCOCC4)nc23)cc1 [Compound 1i]	−1.5
c1ccc(-c2cc(CNCCCN3CCCCC3)nc3c2ccc2c(-c4ccccc4)cc(CNCCCN4CCCCC4)nc23)cc1 [Compound 1k]	0.4
CN1CCN(CCCNCc2cc(-c3ccccc3)c3ccc4c(-c5ccccc5)cc(CNCCCN5CCN(C)CC5)nc4c3n2)CC1 [Compound 1f]	−0.5
CN(C)CCCNCc1cc(-c2ccccc2)c2ccc3c(-c4ccccc4)cc(CNCCCN(C)C)nc3c2n1 [Compound 1b]	−0.3
c1ccc(-c2cc(CNCCc3ccncc3)nc3c2ccc2c(-c4ccccc4)cc(CNCCc4ccncc4)nc23)cc1 [Compound 1o]	−0.3
CN(C)CCNCc1cc(-c2ccccc2)c2ccc3c(-c4ccccc4)cc(CNCCN(C)C)nc3c2n1 [Compound 1a]	−0.3
c1ccc(-c2cc(CNCCCN3CCCC3)nc3c2ccc2c(-c4ccccc4)cc(CNCCCN4CCCC4)nc23)cc1 [Compound 1l]	0.7
c1ccc(-c2cc(CNCCc3cccnc3)nc3c2ccc2c(-c4ccccc4)cc(CNCCc4cccnc4)nc23)cc1 [Compound 1n]	−0.3
CN(C)CCCCCNCc1cc(-c2ccccc2)c2ccc3c(-c4ccccc4)cc(CNCCCCCN(C)C)nc3c2n1 [Compound 1d]	1.8
c1ccc(-c2cc(CNCCN3CCCCC3)nc3c2ccc2c(-c4ccccc4)cc(CNCCN4CCCCC4)nc23)cc1 [Compound 1j]	0.2
c1ccc(-c2cc(CNCCc3ccccn3)nc3c2ccc2c(-c4ccccc4)cc(CNCCc4ccccn4)nc23)cc1 [Compound 1m]	−0.2
CN1CCN(CCCCNCc2cc(-c3ccccc3)c3ccc4c(-c5ccccc5)cc(CNCCCCN5CCN(C)CC5)nc4c3n2)CC1 [Compound 1g]	−0.5

* * *

Counter-ions that a name gives are not always drawn.
Listed here are compounds together with their documented melting point.

COMPOUND	melting point
c1ccc(-c2cc(CNCCc3ccncc3)nc3c2ccc2c(-c4ccccc4)cc(CNCCc4ccncc4)nc23)cc1 (as salt: ammonium)	147 to 149 °C
CN1CCN(CCCCNCc2cc(-c3ccccc3)c3ccc4c(-c5ccccc5)cc(CNCCCCN5CCN(C)CC5)nc4c3n2)CC1 (as salt: ammonium)	207 to 209 °C
c1ccc(-c2cc(CNCCc3ccccn3)nc3c2ccc2c(-c4ccccc4)cc(CNCCc4ccccn4)nc23)cc1 (as salt: ammonium)	165 to 167 °C
CN(C)CCCCNCc1cc(-c2ccccc2)c2ccc3c(-c4ccccc4)cc(CNCCCCN(C)C)nc3c2n1 (as salt: ammonium)	111 to 113 °C
c1ccc(-c2cc(CNCCCc3ccncc3)nc3c2ccc2c(-c4ccccc4)cc(CNCCCc4ccncc4)nc23)cc1 (as salt: ammonium)	99 to 101 °C
c1ccc(-c2cc(CNCCCN3CCOCC3)nc3c2ccc2c(-c4ccccc4)cc(CNCCCN4CCOCC4)nc23)cc1 (as salt: ammonium)	174 to 176 °C
c1ccc(-c2cc(CNCCc3cccnc3)nc3c2ccc2c(-c4ccccc4)cc(CNCCc4cccnc4)nc23)cc1 (as salt: ammonium)	164 to 166 °C
c1ccc(-c2cc(CNCCN3CCCCC3)nc3c2ccc2c(-c4ccccc4)cc(CNCCN4CCCCC4)nc23)cc1 (as salt: ammonium)	192 to 194 °C
CN(C)CCCCCNCc1cc(-c2ccccc2)c2ccc3c(-c4ccccc4)cc(CNCCCCCN(C)C)nc3c2n1 (as salt: ammonium)	119 to 121 °C
CN1CCN(CCNCc2cc(-c3ccccc3)c3ccc4c(-c5ccccc5)cc(CNCCN5CCN(C)CC5)nc4c3n2)CC1 (as salt: ammonium)	185 to 187 °C
CN(C)CCNCc1cc(-c2ccccc2)c2ccc3c(-c4ccccc4)cc(CNCCN(C)C)nc3c2n1 (as salt: ammonium)	179 to 181 °C
c1ccc(-c2cc(CNCCN3CCOCC3)nc3c2ccc2c(-c4ccccc4)cc(CNCCN4CCOCC4)nc23)cc1 (as salt: ammonium)	194 to 196 °C
CN1CCN(CCCNCc2cc(-c3ccccc3)c3ccc4c(-c5ccccc5)cc(CNCCCN5CCN(C)CC5)nc4c3n2)CC1 (as salt: ammonium)	205 to 207 °C
c1ccc(-c2cc(CNCCCN3CCCC3)nc3c2ccc2c(-c4ccccc4)cc(CNCCCN4CCCC4)nc23)cc1 (as salt: ammonium)	145 to 147 °C
CN(C)CCCNCc1cc(-c2ccccc2)c2ccc3c(-c4ccccc4)cc(CNCCCN(C)C)nc3c2n1 (as salt: ammonium)	161 to 163 °C
c1ccc(-c2cc(CNCCCN3CCCCC3)nc3c2ccc2c(-c4ccccc4)cc(CNCCCN4CCCCC4)nc23)cc1 (as salt: ammonium)	141 to 143 °C

* * *

target: human telomeric sequence 24TTG; assay: Native electrospray mass spectrometry, 24TTG; type: binding; conditions: 2:1 ligand:DNA complex; 100 mM TMAA, 1 mM KCl; read-out: Kd 24TTG, stoichiometry 2 (Kd2)
pKd: −log10 of the molar value.

MOLECULAR STRING	ASSAYED TARGET	pKd
c1ccc(-c2cc(CNCCCN3CCCC3)nc3c2ccc2c(-c4ccccc4)cc(CNCCCN4CCCC4)nc23)cc1	human telomeric sequence 24TTG	4.74
CN(C)CCCCCNCc1cc(-c2ccccc2)c2ccc3c(-c4ccccc4)cc(CNCCCCCN(C)C)nc3c2n1	human telomeric sequence 24TTG	4.21
CN(C)CCCCNCc1cc(-c2ccccc2)c2ccc3c(-c4ccccc4)cc(CNCCCCN(C)C)nc3c2n1	human telomeric sequence 24TTG	4.55

* * *

test system: L. donovani (MHOM/IN/00/DEVI) promastigotes; experiment: In vitro antileishmanial activity on promastigotes, MTT assay; format: cell-based; conditions: Leishmania donovani, 72 h incubation, mean +/- SD of three independent experiments
Reported values of IC50 for individual entries
MEASURED PARAMETER: IC50

COMPOUND	MEASURED PARAMETER	TEST RESULT
c1ccc(-c2cc(CNCCCN3CCCC3)nc3c2ccc2c(-c4ccccc4)cc(CNCCCN4CCCC4)nc23)cc1	IC50	> 12.5 µM
c1ccc(-c2cc(CNCCCc3ccncc3)nc3c2ccc2c(-c4ccccc4)cc(CNCCCc4ccncc4)nc23)cc1	IC50	> 12.5 µM
c1ccc(-c2cc(CNCCc3ccncc3)nc3c2ccc2c(-c4ccccc4)cc(CNCCc4ccncc4)nc23)cc1	IC50	2.69 µM
c1ccc(-c2cc(CNCCN3CCCCC3)nc3c2ccc2c(-c4ccccc4)cc(CNCCN4CCCCC4)nc23)cc1	IC50	2.52 µM
CN(C)CCNCc1cc(-c2ccccc2)c2ccc3c(-c4ccccc4)cc(CNCCN(C)C)nc3c2n1	IC50	> 12.5 µM
c1ccc(-c2cc(CNCCCN3CCCCC3)nc3c2ccc2c(-c4ccccc4)cc(CNCCCN4CCCCC4)nc23)cc1	IC50	> 12.5 µM
c1ccc(-c2cc(CNCCCN3CCOCC3)nc3c2ccc2c(-c4ccccc4)cc(CNCCCN4CCOCC4)nc23)cc1	IC50	> 12.5 µM
CN1CCN(CCCNCc2cc(-c3ccccc3)c3ccc4c(-c5ccccc5)cc(CNCCCN5CCN(C)CC5)nc4c3n2)CC1	IC50	> 12.5 µM
c1ccc(-c2cc(CNCCc3ccccn3)nc3c2ccc2c(-c4ccccc4)cc(CNCCc4ccccn4)nc23)cc1	IC50	> 12.5 µM
CN(C)CCCCCNCc1cc(-c2ccccc2)c2ccc3c(-c4ccccc4)cc(CNCCCCCN(C)C)nc3c2n1	IC50	> 12.5 µM
CN(C)CCCCNCc1cc(-c2ccccc2)c2ccc3c(-c4ccccc4)cc(CNCCCCN(C)C)nc3c2n1	IC50	> 12.5 µM
c1ccc(-c2cc(CNCCc3cccnc3)nc3c2ccc2c(-c4ccccc4)cc(CNCCc4cccnc4)nc23)cc1	IC50	2.67 µM
CN(C)CCCNCc1cc(-c2ccccc2)c2ccc3c(-c4ccccc4)cc(CNCCCN(C)C)nc3c2n1	IC50	> 12.5 µM
c1ccc(-c2cc(CNCCN3CCOCC3)nc3c2ccc2c(-c4ccccc4)cc(CNCCN4CCOCC4)nc23)cc1	IC50	4.5 µM
CN1CCN(CCCCNCc2cc(-c3ccccc3)c3ccc4c(-c5ccccc5)cc(CNCCCCN5CCN(C)CC5)nc4c3n2)CC1	IC50	> 12.5 µM
C[C@@H]1[C@H](O)[C@@H](C)/C=C/C=C/C=C/C=C/C=C/C=C/C=C/[C@H](O[C@@H]2O[C@H](C)[C@@H](O)[C@H](N)[C@@H]2O)C[C@@H]2O[C@](O)(C[C@@H](O)C[C@@H](O)[C@H](O)CC[C@@H](O)C[C@@H](O)CC(=O)O[C@H]1C)C[C@H](O)[C@H]2C(=O)O [Amphotericin B, reference compound]	IC50	0.1 µM
CN1CCN(CCNCc2cc(-c3ccccc3)c3ccc4c(-c5ccccc5)cc(CNCCN5CCN(C)CC5)nc4c3n2)CC1	IC50	> 12.5 µM
N=C(N)c1ccc(OCCCCCOc2ccc(C(=N)N)cc2)cc1 [Pentamidine, reference compound]	IC50	5.5 µM
